System: HCV type 1b replicon in Huh-7 luc/neo (Huh-Luc) cells
Assay: HCV replicon assay (Huh-Luc cells, luciferase read-out)
Type: cell-based
Conditions: inhibition of HCV replication, three days incubation, luciferase activity

| molecule | target system | rel | EC50 (nM) |
| --- | --- | --- | --- |
| CCCOC(=O)[C@H](C)NP(=O)(OC[C@H]1O[C@@H](n2ccc(=O)[nH]c2=O)[C@](C)(N)[C@@H]1O)Oc1ccccc1 (single isomer, unassigned) [Example 24B] | HCV type 1b replicon in Huh-7 luc/neo (Huh-Luc) cells | = | 1500 |
| C[C@H](NP(=O)(OC[C@H]1O[C@@H](n2ccc(=O)[nH]c2=O)[C@](C)(N)[C@@H]1O)Oc1ccccc1)C(=O)OC1CCCC1 (single isomer, unassigned) [Example 5A] | HCV type 1b replicon in Huh-7 luc/neo (Huh-Luc) cells | = | 4700 |
| COC(=O)[C@H](C)NP(=O)(OC[C@H]1O[C@@H](n2ccc(=O)[nH]c2=O)[C@](C)(N)[C@@H]1O)Oc1ccccc1 (single isomer, unassigned) [Example 16B] | HCV type 1b replicon in Huh-7 luc/neo (Huh-Luc) cells | = | 2100 |
| CCC[C@H](C)OC(=O)[C@@H](C)NP(=O)(OC[C@H]1O[C@@H](n2ccc(=O)[nH]c2=O)[C@](C)(N)[C@@H]1O)Oc1ccccc1 (single isomer, unassigned) [Example 25B] | HCV type 1b replicon in Huh-7 luc/neo (Huh-Luc) cells | = | 380 |
| CCC(CC)COC(=O)[C@H](C)NP(=O)(OC[C@H]1O[C@@H](n2ccc(=O)[nH]c2=O)[C@](C)(N)[C@@H]1O)Oc1ccccc1 (single isomer, unassigned) [Example 20A] | HCV type 1b replicon in Huh-7 luc/neo (Huh-Luc) cells | = | 1600 |
| C[C@H](NP(=O)(OC[C@H]1O[C@@H](n2ccc(=O)[nH]c2=O)[C@](C)(N)[C@@H]1O)Oc1ccccc1)C(=O)OCCC(C)(C)C (single isomer, unassigned) [Example 6B] | HCV type 1b replicon in Huh-7 luc/neo (Huh-Luc) cells | = | 490 |
| COC(=O)[C@H](C)NP(=O)(OC[C@H]1O[C@@H](n2ccc(=O)[nH]c2=O)[C@](C)(N)[C@@H]1O)Oc1ccccc1 (single isomer, unassigned) [Example 16A] | HCV type 1b replicon in Huh-7 luc/neo (Huh-Luc) cells | = | 5100 |
| C[C@@]1(N)[C@H](O)[C@@H](COP(=O)(O)O)O[C@H]1n1ccc(=O)[nH]c1=O | HCV type 1b replicon in Huh-7 luc/neo (Huh-Luc) cells | > | 50000 |
| C[C@H](NP(=O)(OC[C@H]1O[C@@H](n2ccc(=O)[nH]c2=O)[C@](C)(N)[C@@H]1O)Oc1ccccc1)C(=O)OCC1CCCC1 (single isomer, unassigned) [Example 27A] | HCV type 1b replicon in Huh-7 luc/neo (Huh-Luc) cells | = | 2200 |
| C[C@H](NP(=O)(OC[C@H]1O[C@@H](n2ccc(=O)[nH]c2=O)[C@](C)(N)[C@@H]1O)Oc1ccccc1)C(=O)OCc1ccccc1 (single isomer, unassigned) [Example 15A] | HCV type 1b replicon in Huh-7 luc/neo (Huh-Luc) cells | = | 3100 |
| C[C@H](NP(=O)(OC[C@H]1O[C@@H](n2ccc(=O)[nH]c2=O)[C@](C)(N)[C@@H]1O)Oc1ccccc1)C(=O)OCC(C)(C)C (single isomer, unassigned) [Example 13B] | HCV type 1b replicon in Huh-7 luc/neo (Huh-Luc) cells | = | 300 |
| CCCC(CCC)COC(=O)[C@H](C)NP(=O)(OC[C@H]1O[C@@H](n2ccc(=O)[nH]c2=O)[C@](C)(N)[C@@H]1O)Oc1ccccc1 (single isomer, unassigned) [Example 14A] | HCV type 1b replicon in Huh-7 luc/neo (Huh-Luc) cells | = | 1600 |
| C[C@H](NP(=O)(OC[C@H]1O[C@@H](n2ccc(=O)[nH]c2=O)[C@](C)(N)[C@@H]1O)Oc1ccccc1)C(=O)OC1CCCCCCC1 (single isomer, unassigned) [Example 10B] | HCV type 1b replicon in Huh-7 luc/neo (Huh-Luc) cells | = | 290 |
| C[C@H](NP(=O)(OC[C@H]1O[C@@H](n2ccc(=O)[nH]c2=O)[C@](C)(N)[C@@H]1O)Oc1ccccc1)C(=O)OCCC(C)(C)C (single isomer, unassigned) [Example 6A] | HCV type 1b replicon in Huh-7 luc/neo (Huh-Luc) cells | = | 2300 |
| C[C@H](NP(=O)(OC[C@H]1O[C@@H](n2ccc(=O)[nH]c2=O)[C@](C)(N)[C@@H]1O)Oc1ccccc1)C(=O)OC1CCCC1 (single isomer, unassigned) [Example 5B] | HCV type 1b replicon in Huh-7 luc/neo (Huh-Luc) cells | = | 470 |
| CC(C)COC(=O)[C@H](C)NP(=O)(OC[C@H]1O[C@@H](n2ccc(=O)[nH]c2=O)[C@](C)(N)[C@@H]1O)Oc1ccccc1 (single isomer, unassigned) [Example 17B] | HCV type 1b replicon in Huh-7 luc/neo (Huh-Luc) cells | = | 600 |
| CCC(CC)COC(=O)[C@H](C)NP(=O)(OC[C@H]1O[C@@H](n2ccc(=O)[nH]c2=O)[C@](C)(N)[C@@H]1O)Oc1ccccc1 (single isomer, unassigned) [Example 20B] | HCV type 1b replicon in Huh-7 luc/neo (Huh-Luc) cells | = | 400 |
| C[C@H](NP(=O)(OC[C@H]1O[C@@H](n2ccc(=O)[nH]c2=O)[C@](C)(N)[C@@H]1O)Oc1ccccc1)C(=O)OCC(C)(C)C (single isomer, unassigned) [Example 13A] | HCV type 1b replicon in Huh-7 luc/neo (Huh-Luc) cells | = | 2400 |
| CC[C@@H](C)OC(=O)[C@H](C)NP(=O)(OC[C@H]1O[C@@H](n2ccc(=O)[nH]c2=O)[C@](C)(N)[C@@H]1O)Oc1ccccc1 (single isomer, unassigned) [Example 22A] | HCV type 1b replicon in Huh-7 luc/neo (Huh-Luc) cells | = | 21000 |
| CCC(CC)OC(=O)[C@H](C)NP(=O)(OC[C@H]1O[C@@H](n2ccc(=O)[nH]c2=O)[C@](C)(N)[C@@H]1O)Oc1ccccc1 (single isomer, unassigned) [Example 28B] | HCV type 1b replicon in Huh-7 luc/neo (Huh-Luc) cells | = | 480 |
